# experimental-target: Serine/threonine-protein kinase Nek7 (Homo sapiens) (UniProt Q8TDX7);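 also: figures are averaged percent inhibition of NEK7 kinase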
# Sequence (Q8TDX7 whole entry, looked up): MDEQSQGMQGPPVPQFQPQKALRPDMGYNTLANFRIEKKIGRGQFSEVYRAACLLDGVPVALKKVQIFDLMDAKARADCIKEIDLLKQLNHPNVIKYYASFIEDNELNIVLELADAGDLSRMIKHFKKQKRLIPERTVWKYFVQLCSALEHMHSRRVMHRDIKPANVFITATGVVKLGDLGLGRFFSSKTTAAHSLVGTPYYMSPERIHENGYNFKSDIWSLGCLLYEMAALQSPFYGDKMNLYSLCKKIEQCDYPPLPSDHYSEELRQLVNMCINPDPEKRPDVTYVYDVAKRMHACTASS
# protocol-conditions: at 0.1 µM
reported-metric: inhibition (%)

> print(dat)
                                 smiles.code  numeric.value
 1  Fc1ccc(Nc2nccc(-c3c(-c4ccc(C(F)(F)F)cc4)nn4ncccc34)n2)cc1F           3.33
 2  CS(=O)(=O)CCNCc1ccoc1-c1ccc2ncnc(Nc3ccc(OCc4ccccc4)cc3)c2c1            0.9
 3          N#Cc1cccc(Nc2ncc(-c3ccccc3)o2)c1           2.82
 4  COc1cc(N2CCN(C(C)C)CC2)ccc1Nc1nc(Nc2cccc3ncccc23)c2cc[nH]c2n1           1.54
 5  CS(=O)(=O)Nc1ccc(-c2cc(-c3ccccc3)cc(C(N)=O)c2N)cc1           1.35
 6  Cc1nnc(-c2cccc(-c3ccc(C(=O)NCC4CC4)cc3)c2)o1           4.29
 7                 Cn1c(-c2nonc2N)nc2cnccc21           3.76
 8  COc1cc2c(cc1Nc1nc(Nc3cccc(F)c3C(N)=O)c3cc[nH]c3n1)N(C(=O)CN1CCN(C(C)C)CC1)CC2            3.3
 9  CS(=O)(=O)CCNCc1ccc(-c2ccc3ncnc(Nc4ccc(OCc5ccccc5)cc4)c3c2)o1           2.47
10  COc1cccc(-n2ncc3c(N/N=C/c4ccc(C(=O)NCCN(C)C)cc4)ncnc32)c1           3.99
11  COc1cc(N2CCN(C(C)C)CC2)ccc1Nc1nc(Nc2cccc(F)c2C(=O)O)c2cc[nH]c2n1           3.58
12  NS(=O)(=O)c1ccc(N/N=C2\C(=O)Nc3ccc(C(=O)NCc4ccncc4)cc32)cc1            3.8

---

# experimental-target: Protein kinase C theta type (Homo sapiens) (UniProt Q04759);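 also: each value is a mean inhibition of PKC-theta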
# Sequence (Q04759 whole entry, looked up): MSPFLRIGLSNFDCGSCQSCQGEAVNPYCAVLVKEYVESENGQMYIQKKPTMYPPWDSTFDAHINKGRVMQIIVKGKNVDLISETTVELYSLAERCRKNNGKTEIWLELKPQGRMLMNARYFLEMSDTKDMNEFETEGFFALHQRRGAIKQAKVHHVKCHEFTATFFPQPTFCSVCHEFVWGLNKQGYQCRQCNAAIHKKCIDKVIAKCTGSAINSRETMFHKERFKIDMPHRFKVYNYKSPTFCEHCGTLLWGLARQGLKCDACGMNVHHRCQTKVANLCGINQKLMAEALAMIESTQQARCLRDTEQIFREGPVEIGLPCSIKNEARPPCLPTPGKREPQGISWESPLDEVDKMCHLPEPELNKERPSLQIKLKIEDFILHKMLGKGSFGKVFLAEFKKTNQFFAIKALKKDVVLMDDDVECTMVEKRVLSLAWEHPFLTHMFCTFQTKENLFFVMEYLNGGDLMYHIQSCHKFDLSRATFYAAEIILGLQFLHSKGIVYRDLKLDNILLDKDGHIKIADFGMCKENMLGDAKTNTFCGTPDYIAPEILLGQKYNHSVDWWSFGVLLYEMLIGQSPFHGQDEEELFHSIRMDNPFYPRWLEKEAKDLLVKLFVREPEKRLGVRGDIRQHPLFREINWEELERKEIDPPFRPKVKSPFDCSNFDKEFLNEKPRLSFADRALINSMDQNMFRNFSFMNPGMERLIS
# protocol-conditions: at 1 µM
reported-metric: inhibition

> print(dat)
                                 smiles.code  result
 1    c1cnn2ncc(-c3ccnc(NCCCN4CCOCC4)n3)c2c1   2.41%
 2  COc1ccc(-c2nn3ncccc3c2-c2ccnc(Nc3ccc(F)c(F)c3)n2)cc1   7.77%
 3  CS(=O)(=O)CCNCc1ccc(-c2ccc3ncnc(Nc4ccc(OCc5ccccc5)cc4)c3c2)o1   2.01%
 4  COc1cc(N2CCN(C(C)C)CC2)ccc1Nc1nc(Nc2cccc3ncccc23)c2cc[nH]c2n1  -1.07%
 5  CC1(C)CC(n2cnc(-c3ccc(F)cc3)c2-c2ccnc(N)n2)CC(C)(C)N1   1.27%
 6           CNC(=O)c1cncc(/C=C/c2ccccc2C)c1   5.04%
 7      Cc1cc(O)cc(C)c1/C=C/c1cncc(C(N)=O)c1   0.54%
 8  CCN1CCC(C(=O)Nc2n[nH]c3nnc(-c4cccc(F)c4F)cc23)CC1  -1.11%
 9  NS(=O)(=O)c1ccc(N/N=C2\C(=O)Nc3cccc(CCc4ccncc4)c32)cc1  -0.34%
10          N#Cc1cccc(Nc2ncc(-c3ccccc3)o2)c1   3.57%
11  CC(C)c1ccc(-c2cc(-c3c[nH]nc3-c3ccccn3)ccn2)cc1  -0.28%
12  CN1CCC(n2cnc(-c3ccc(F)cc3)c2-c2ccnc(NCCO)n2)CC1   5.13%
13  Cc1cc(O)cc(C)c1/C=C/c1cncc(C(=O)OC(C)(C)C)c1   1.91%

meta.source: ChEMBL document CHEMBL1961873
